experiment: qHTS Assay for NPC1 Promoter Activators: Initial hit validation from the primary screen; conditions: Huh7 NPC1 promoter-luciferase reporter, luminescence, 24 h; series mostly up to 46.1 µM
Results filed as inconclusive are left out. The source made the active and inactive calls. Calls follow the shape of the dose curve; as a rule, active = well fitted activation curve with a large enough effect; inconclusive = small, poorly fitted or top-dose-only effect; inactive = flat fitted curve, though single readings scatter.
Classes to choose from: yes (active), no (inactive)

{"columns": ["COMPOUND", "LABEL_VALUE"],
 "data": [
  ["O=C(CCCOc1ccc(Cl)cc1)N1CCCCC1", "yes"],
  ["CCC(=O)Nc1cc(-c2cc3ccccc3oc2=O)ccc1OC", "yes"]
]}

Lab note: next compound to report on.
Ask: Just curious, what result did COc1ccc2oc(=O)c(C(=O)NC(C)c3ccccc3)cc2c1 (stereo not given) get here?
Result: no
